Tested on: in vivo angiogenesis, blood vessel count
assay.procedure: reduction of blood vessel formation in vivo – HTS, in vivo study (AID 732);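 also: zebrafish embryos dosed at one day post fertilization; 0% = reference inhibitor and 100% = plate mean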
study.conditions: stronger effect = lower value;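 tested at 30 µM in the well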

[
  {
    "compound": "CO[C@H]1CC=C2CCN3CCC4=C(CC(=O)OC4)[C@]23C1",
    "vessel count % control (%)": 105
  },
  {
    "compound": "CN(C)C(=O)Oc1ccc[n+](C)c1",
    "vessel count % control (%)": 110
  },
  {
    "compound": "c1ccc(CN2CCC3(CCCc4ccccc43)CC2)cc1",
    "vessel count % control (%)": 128
  },
  {
    "compound": "NC(=O)CC[C@H](N)C(=O)O",
    "vessel count % control (%)": 104
  },
  {
    "compound": "Nc1ccc(S(=O)(=O)Nc2ccnn2-c2ccccc2)cc1",
    "vessel count % control (%)": 122
  },
  {
    "compound": "CS(=N)(=O)CC[C@H](N)C(=O)O (stereo partly drawn)",
    "vessel count % control (%)": 99.4
  },
  {
    "compound": "CCCCOc1cc(CC2CNC(=O)N2)ccc1OC (stereo not drawn)",
    "vessel count % control (%)": 106
  },
  {
    "compound": "COC(=O)[C@@H]1[C@H]2C[C@H]3c4[nH]c5ccccc5c4CCN3C[C@@H]2CC[C@@H]1O",
    "vessel count % control (%)": 95.4
  },
  {
    "compound": "COc1ccccc1N1CCNCC1",
    "vessel count % control (%)": 96.7
  },
  {
    "compound": "NCC#Cc1ccccc1",
    "vessel count % control (%)": 107
  },
  {
    "compound": "CC(CCc1ccc(O)cc1)NCCc1ccc(O)c(O)c1 (stereo not drawn)",
    "vessel count % control (%)": 92.8
  },
  {
    "compound": "O=Nc1c(-c2c(O)[nH]c3ccc([N+](=O)[O-])cc23)[nH]c2ccc(Br)cc12",
    "vessel count % control (%)": 79.3
  },
  {
    "compound": "Cn1cnc(CCN)c1",
    "vessel count % control (%)": 99.8
  }
]

# credit: PubChem BioAssay AID732
